Test system: HCT116
Test: viability inhibition vs untreated; higher = more cytotoxic
Settings: genotype: MTA1-KO; 16 nM; 72 h
Structures can show the parent of a compound that is named as a salt.
metric-name: viability inhibition (%)
Answers are plain numbers, in %.

compound=O=S(=O)(NCCSSCCNS(=O)(=O)c1cc(Cl)ccc1Cl)c1cc(Cl)ccc1Cl metric_name="viability inhibition" measurement_units=% recorded_measurement=3.77
compound="CCN[C@H]1C[C@H](C)S(=O)(=O)c2sc(S(N)(=O)=O)cc21 [Dorzolamide hydrochloride]" metric_name="viability inhibition" measurement_units=% recorded_measurement=-14.8
compound=Clc1ccccc1C(c1ccccc1)(c1ccccc1)n1ccnc1 metric_name="viability inhibition" measurement_units=% recorded_measurement=-16.8
compound="Cc1ccc(-c2cn3c4c(sc3n2)CCCC4)cc1 [Pifithrin-β hydrobromide]" metric_name="viability inhibition" measurement_units=% recorded_measurement=-6.36
compound=O=c1oc2ccccc2c(O)c1Cc1c(O)c2ccccc2oc1=O metric_name="viability inhibition" measurement_units=% recorded_measurement=4.75

Okay, here is my list. What is viability inhibition for each of these?
1. COC(=O)c1ccc(O)c(NC(=O)COc2ccc(C34CC5CC(CC(C5)C3)C4)cc2)c1
2. CNc1cc(-c2cccc(Cl)c2Cl)nc(N)n1 [TH287 hydrochloride]
3. CCC(C)(Oc1ccc(C2(c3ccc(OC(C)(CC)C(=O)O)cc3)CCCCC2)cc1)C(=O)O (centres undefined) [Clinofibrate]
4. COC1CCC(N2C(=O)CNc3ncc(-c4ccc(C(C)(C)O)nc4)nc32)CC1 (centres undefined)
5. CC(C)c1nc(N(C)S(C)(=O)=O)nc(-c2ccc(F)cc2)c1/C=C/[C@@H](O)C[C@@H](O)CC(=O)O
6. CC1(C)O[C@@H]2[C@@H](CO[C@@]3(COS(N)(=O)=O)OC(C)(C)O[C@@H]23)O1 [Topiramate]
7. O=C1NC(=O)/C(=C/c2ccc3nccc(-c4ccncc4)c3c2)S1

RESULT:
1: 1.16; 2: 18.9; 3: 12.9; 4: -8.46; 5: -4.22; 6: -4.79; 7: -12
